The reported numbers originate from ChEMBL document CHEMBL3259773.

Biological target: Polyunsaturated fatty acid 5-lipoxygenase (Homo sapiens) (UniProt P09917)
Assay: Inhibition of 5-LO in human neutrophils assessed as product formation at 3 uM by cell-intact assay relative to control in presence of 2.5 uM A23187 ionophore; values are per cent of control
Please respond with reported residual activity for every item in the list.
Quick reminder: number only, in %, skip the unit.

residual activity in this record for CN(CCO/N=C1/C(=C2/C(=O)Nc3cc(Br)ccc32)Nc2ccccc21)CC(O)CO (stereo not given) : 87

response.value for O=C1Nc2cc(Br)ccc2/C1=C1/Nc2ccccc2/C1=N\OCC(O)CO (stereo not given) (field: residual activity) = 77.7

Lookup result for CN1C(=O)/C(=C2\Nc3ccccc3\C2=N/O)c2cccc(Br)c21 ; measured residual activity: 122

So, O=C1Nc2cc(Br)ccc2/C1=C1/Nc2ccccc2/C1=N\OCCN1CCN(CCO)CC1 ? Its residual activity was 119

The recorded residual activity for CO/N=C1/C(=C2/C(=O)Nc3c(Br)cccc32)Nc2ccccc21 is 120

Entry O=C1Nc2c(Cl)cccc2/C1=C1/Nc2ccccc2/C1=N\O , residual activity reported as 67.4

// recorded residual activity for CN1CCN(CCO/N=C2/C(=C3/C(=O)Nc4cc(Br)ccc43)Nc3ccccc32)CC1 : 91.1

Measured residual activity, O=C1Nc2c(Br)cccc2/C1=C1/Nc2ccccc2/C1=N\O : 43

Item: CC(c1cc2ccccc2s1)N(O)C(N)=O (stereo not given) | residual activity: 37.9

The value of residual activity measured for the molecule O=C1Nc2cc(Br)ccc2/C1=C1/Nc2ccccc2/C1=N\OCCO turned out to be 81.5

* * *

Biological target: Polyunsaturated fatty acid 5-lipoxygenase (Homo sapiens, UniProt P09917)
Assay: Inhibition of human recombinant 5-LO assessed as product formation by cell-free assay relative to control
readout.label: IC50 (µM)
Just the number please, in µM, no unit attached.

Recorded IC50 (compound O=C1Nc2c(F)cccc2/C1=C1/Nc2ccccc2/C1=N\O ): 3.7

Reported IC50 ( O=C1Nc2ccc(Br)cc2/C1=C1/Nc2ccccc2/C1=N\O [INDIRUBIN 2] ) = 5.6

In plain terms, O=C1Nc2c(Br)cccc2/C1=C1/Nc2ccccc2/C1=N\O has a documented IC50 of 5.8

The compound identified as O=Nc1c(-c2c(O)[nH]c3ccccc23)[nH]c2ccccc12 [INDIRUBIN-3-MONOXIME] registered its IC50 at 15

So for O=C1Nc2c(Cl)cccc2/C1=C1/Nc2ccccc2/C1=N\O , the logged IC50 turned out to be 4.9

* * *

Biological target: Polyunsaturated fatty acid 5-lipoxygenase (Homo sapiens, UniProt P09917)
Sequence (P09917 whole entry): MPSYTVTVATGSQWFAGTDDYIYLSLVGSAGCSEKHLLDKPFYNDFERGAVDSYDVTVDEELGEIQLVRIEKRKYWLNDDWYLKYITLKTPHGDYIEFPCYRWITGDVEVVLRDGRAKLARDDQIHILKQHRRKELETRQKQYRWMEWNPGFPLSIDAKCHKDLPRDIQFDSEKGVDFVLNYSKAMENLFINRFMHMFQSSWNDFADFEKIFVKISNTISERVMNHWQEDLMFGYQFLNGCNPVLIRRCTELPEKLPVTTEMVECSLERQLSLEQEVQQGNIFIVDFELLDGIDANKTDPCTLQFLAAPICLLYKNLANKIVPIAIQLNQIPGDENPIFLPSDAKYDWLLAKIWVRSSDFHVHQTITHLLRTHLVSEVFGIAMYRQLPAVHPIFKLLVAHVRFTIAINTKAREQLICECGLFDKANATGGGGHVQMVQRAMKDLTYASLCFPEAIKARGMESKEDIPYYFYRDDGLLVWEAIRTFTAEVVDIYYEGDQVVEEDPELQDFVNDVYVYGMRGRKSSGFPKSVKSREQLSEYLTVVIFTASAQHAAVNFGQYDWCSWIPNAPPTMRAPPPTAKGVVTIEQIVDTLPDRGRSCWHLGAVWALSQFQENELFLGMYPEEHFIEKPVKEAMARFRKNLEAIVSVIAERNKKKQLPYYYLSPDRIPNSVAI
Assay: Inhibition of 5-LO in human neutrophils assessed as product formation by cell-intact assay relative to control in presence of 2.5 uM A23187 ionophore
For each of the molecules below, state its IC50.
Reply with a number, then the unit it belongs to.

IC50 for O=C1Nc2c(Cl)cccc2/C1=C1/Nc2ccccc2/C1=N\O is 4.9 µM

Field IC50 (entry O=C1Nc2c(Br)cccc2/C1=C1/Nc2ccccc2/C1=N\O ) reads 1.7 µM

IC50 reading for O=C1Nc2ccc(Br)cc2/C1=C1/Nc2ccccc2/C1=N\O : 2.6 µM

Item: O=C1Nc2c(F)cccc2/C1=C1/Nc2ccccc2/C1=N\O | IC50: 5 µM

The reported value for O=Nc1c(-c2c(O)[nH]c3ccccc23)[nH]c2ccccc12 in terms of IC50 is 11.1 µM

* * *

Target: Polyunsaturated fatty acid 5-lipoxygenase (Homo sapiens)
Assay: Inhibition of human recombinant 5-LO assessed as product formation at 3 uM by cell-free assay relative to control; values are per cent of control
Please go through the items and note down their residual activity.
Report as a plain number; the unit % is understood.

residual activity for O=C1Nc2cc(Br)ccc2/C1=C1/Nc2ccccc2/C1=N\OCC(O)CO (centres undefined) is 58

residual activity recorded for this compound, CN(CCO/N=C1/C(=C2/C(=O)Nc3cc(Br)ccc32)Nc2ccccc21)CC(O)CO (centres undefined) , is 71.5

In plain terms, COC(=O)c1ccc2c(c1)C(=N\O)/C(=C1/C(=O)Nc3c(Br)cccc31)N2 has a documented residual activity of 72.8

The compound listed as O=C1Nc2c(Br)cccc2/C1=C1/Nc2cc(C(=O)O)ccc2/C1=N\O shows residual activity equal to 77.1

The value of residual activity measured for the compound O=Nc1c(-c2c(O)[nH]c3ccccc23)[nH]c2cc(Br)ccc12 turned out to be 43.9

Lab book: residual activity of CN1C(=O)/C(=C2\Nc3ccccc3\C2=N/O)c2cccc(Br)c21 noted as 97.7

Value of measured residual activity for the entry O=C1Nc2cc(Br)ccc2/C1=C1/Nc2ccccc2/C1=N\OCCN1CCN(CCO)CC1 : 89.3

Please fill in: residual activity reported for O=C1Nc2cc(Br)ccc2/C1=C1/Nc2ccccc2/C1=N\OCCN1CCNCC1 = 76.2

Sample O=C1Nc2cc(Br)ccc2/C1=C1/Nc2ccccc2/C1=N\OCCN1CCOCC1 ; residual activity observed: 60.3

Field residual activity (entry O=C1Nc2c(F)cccc2/C1=C1/Nc2ccccc2/C1=N\O ) reads 58.1

# compound O=C1Nc2cc(Br)ccc2/C1=C1/Nc2ccccc2/C1=N\OCCO ; its residual activity = 88.3

Looking up O=C1Nc2c(Br)cccc2/C1=C1/Nc2ccccc2/C1=N\O , I found its residual activity recorded as 68.9

Short answer for O=C1Nc2c(Br)cccc2/C1=C1/Nc2cc(C(=O)O)ccc2C1=O : residual activity was 80

The compound O=C1Nc2c(Cl)cccc2/C1=C1/Nc2ccccc2/C1=N\O showed residual activity equal to 65.8

* * *

Kindly state residual activity for each of the entries shown.
Molecular target: Polyunsaturated fatty acid 5-lipoxygenase (Homo sapiens)
Experiment: Inhibition of 5-LO in human neutrophils assessed as product formation at 3 uM by cell-intact assay relative to control in presence of 2.5 uM A23187 ionophore; values are per cent of control
Return type: number; implicit unit %.

// residual activity lookup, molecule = O=Nc1c(-c2c(O)[nH]c3ccccc23)[nH]c2ccccc12 , result: 92.2

For O=C1Nc2cc(Br)ccc2/C1=C1/Nc2ccccc2/C1=N\OCCN1CCCC1 the molecule record lists residual activity as 127

Kindly note the recorded residual activity for O=C1Nc2ccc(Br)cc2/C1=C1/Nc2ccccc2/C1=N\O , which is 51.1

Lab note: measured residual activity of O=C1Nc2c(Br)cccc2/C1=C1/Nc2cc(C(=O)O)ccc2/C1=N\O was 123

For record O=C1Nc2c(Br)cccc2/C1=C1/Nc2cc(C(=O)O)ccc2C1=O the listed residual activity is 105

residual activity recorded for this molecule, COC(=O)c1ccc2c(c1)C(=N\O)/C(=C1/C(=O)Nc3c(Br)cccc31)N2 , is 99.1

// residual activity value for O=C1Nc2c(Br)cccc2/C1=C1/Nc2ccc(/C=N/O)cc2C1=O : 95.1

Form field residual activity, entry O=C1Nc2c(Br)cccc2/C1=C1/Nc2ccccc2C1=O : 110

Quick note, residual activity for O=C1Nc2c(cccc2C(F)(F)F)/C1=C1/Nc2ccccc2/C1=N\O landed at 92.6

Reported residual activity of O=C1Nc2cc(Br)ccc2/C1=C1/Nc2ccccc2/C1=N\OCCN1CCOCC1 : 62.7

* * *

Target: Polyunsaturated fatty acid 5-lipoxygenase (Homo sapiens, UniProt P09917)
Assay: Inhibition of 5-LO in human neutrophils assessed as product formation by cell-intact assay relative to control in presence of 20 uM A23187/AA ionophore
readout.label: pIC50
Quick note: pIC50 means taking -log10 of the concentration in moles per liter.

Polyunsaturated fatty acid 5-lipoxygenase (Homo sapiens, UniProt P09917) data for O=C1Nc2c(Cl)cccc2/C1=C1/Nc2ccccc2/C1=N\O ; its pIC50: 5.51

Summary line: O=C1Nc2ccc(Br)cc2/C1=C1/Nc2ccccc2/C1=N\O [INDIRUBIN 2] , Polyunsaturated fatty acid 5-lipoxygenase (Homo sapiens, UniProt P09917), reported pIC50 = 5.48

Kindly note: Polyunsaturated fatty acid 5-lipoxygenase (Homo sapiens, UniProt P09917), O=C1Nc2c(F)cccc2/C1=C1/Nc2ccccc2/C1=N\O , pIC50 value reported: 5.48

# lookup: O=C1Nc2c(Br)cccc2/C1=C1/Nc2ccccc2/C1=N\O on Polyunsaturated fatty acid 5-lipoxygenase (Homo sapiens, UniProt P09917), pIC50 = 5.44

Measured on Polyunsaturated fatty acid 5-lipoxygenase (Homo sapiens, UniProt P09917), O=Nc1c(-c2c(O)[nH]c3ccccc23)[nH]c2ccccc12 [INDIRUBIN-3-MONOXIME] has a documented pIC50 of 5.09
